target: T1, human MT1-MMP hemopexin domain (human, UniProt P50281 319-511); assay: FP competition, human MT1-MMP hemopexin domain (n = 3; footnote e)
T1 construct: range 319-511; Secreted from HEK293 cells as soluble N-terminally His6-tagged protein; also called MT1-MMP hemopexin-like repeats; MMP14
pKd: −log10 of the molar value.
testReadout: pKd

>  <binder>
GXACYNEFGCEDFYDIC (not fully specified; Sar x10 in the spacer; 3 Cys cyclised with TBMB, also called G-Sar10-A-(17-69-07) (non-stabilised with spacer)) [17-69-07-N219]

>  <endpointResult>
9.09

$$$$

Hey, just so you know, these numbers are from patent US20180280525A1.
